Below, each of the compounds is paired with its reported Control value.
Organism: Mus musculus
Test: Lymphocyte Proliferation Stimulatory effect was tested on mouse spleen cells and evaluated for at 6 h [3H]TdR (tritium-thymidine) pulse and uptake into cells at 1 ng/mL
Format: functional
Reply with just the number (in %).

Answered cases to consult:
compound	scale_unit	Control
CCCCCCCCCCCCCCCCCCCCCCCC[C@@H](O)C(=O)N[C@@H](CO[C@H]1O[C@@H](CO)[C@H](O)[C@H](O)[C@@H]1O)[C@H](O)[C@H](O)CCCCCCCCCCCCCCCC	%	153
CCCCCCCCCCCCCCCCCCCC(=O)N[C@@H](CO[C@H]1O[C@@H](CO)[C@H](O)[C@H](O)[C@@H]1O)[C@H](O)CCCCCCCCCCCCCCC	%	177
CCCCCCCCCCCCCCCCCCCCCC(=O)N[C@@H](CO[C@H]1O[C@@H](CO)[C@H](O)[C@H](O)[C@@H]1O)[C@H](O)CCCCCCCCCCCCCCC	%	378
CCCCCCCCCCCCCCCCCC(=O)N[C@@H](CO[C@H]1O[C@@H](CO)[C@H](O)[C@H](O)[C@@H]1O)[C@H](O)CCCCCCCCCCCCCCC	%	155
CCCCCCCCCCCCCCCCCCCCCCCC(=O)N[C@H](CCCCCCCCCCCCCCCC)CO[C@H]1O[C@@H](CO)[C@H](O)[C@H](O)[C@@H]1O	%	90
CCCCCCCCCCCCCCCCCCCCCC[C@@H](O)C(=O)N[C@@H](CO[C@H]1O[C@@H](CO)[C@H](O)[C@H](O)[C@@H]1O)[C@H](O)[C@H](O)CCCCCCCCCCCCCC	%	1060
CCCCCCCCCCCCCCCCCCCCCCCC(=O)N[C@@H](CO[C@H]1O[C@@H](CO)[C@H](O)[C@H](O)[C@@H]1O)[C@H](O)[C@H](O)CCCCCCCCCCCCCC	%	198
CCCCCCCCCCCCCCCCCCCCCC[C@@H](O)C(=O)N[C@@H](CO[C@H]1O[C@@H](CO)[C@H](O)[C@H](O)[C@@H]1O)[C@H](O)[C@H](O)CCCCCCCCCCC	%	330

Control reported for this compound CCCCCCCCCCCCCCCCCCCCCC[C@@H](O)C(=O)N[C@@H](CO[C@H]1O[C@@H](CO)[C@H](O)[C@H](O)[C@@H]1O)[C@H](O)[C@H](O)CCCCCCCCCCCCC : 520

Control reported for this compound CCCCCCCCCCCCCCCCCCCCCC[C@@H](O)C(=O)N[C@@H](CO[C@H]1O[C@@H](CO)[C@H](O)[C@H](O)[C@@H]1O)[C@H](O)[C@H](O)CCCCCCC : 196

Control reported for this compound CCCCCCCCCCCCCCCCCCCCCCCC[C@@H](O)C(=O)N[C@@H](CO[C@H]1O[C@@H](CO)[C@H](O)[C@H](O)[C@@H]1O)[C@H](O)[C@H](O)CCCCCCCCCCCCCC : 203

Control reported for this compound CCCCCCCCCCCCCCCCCCCCCC[C@@H](O)C(=O)N[C@@H](CO[C@H]1O[C@@H](CO)[C@H](O)[C@H](O)[C@@H]1O)[C@H](O)[C@H](O)CCCCCCCCCCCC(C)C (stereo in doubt; form 1) : 282
